assay: Critical micelle concentration by hydrophobic fluorescence staining with diphenylhexatriene (DPH); assay type: physicochemical; conditions: DPH fluorescence staining, aqueous solution
MEASURE: CMC (µM)
Give just the numeric value; µM need not be written.

Which CMC value is on record for CCCCCCCCCCCCO[C@@H]1O[C@H](CO)[C@@H](O[C@H]2O[C@H](CO)[C@@H](O)[C@H](O)[C@H]2O)[C@H](O)[C@H]1O [DDM, n-dodecyl-β-D-maltopyranoside] ?
170
